- System: 786-0 renal
- measurement-description: NCI tumour cell line growth inhibition, 48 h
TGI values for the compounds below.

Recorded TGI, per entry:
// query Recorded TGI of COc1ccc(-c2nc(Nc3ccc(-c4nc5ccccc5[nH]4)cc3)nc(N3CCOCC3)n2)cc1 , please.
// result 3.23 µM

// query Recorded TGI of O=[N+]([O-])c1ccc(Sc2nc(Cl)nc(NC3CCCC3)n2)cc1 , please.
// result > 10 µM

// next item, TGI requested
// query Recorded TGI of CCOC(=O)C(=[N+]=[N-])C(=O)CN1C(=O)C2CC(C)=C(C)CC2C1O (stereo not drawn) , please.
// result > 100 µM

* * *

- System: HCC-2998 colon
- measurement-description: NCI tumour cell line growth inhibition, 48 h
TGI values for the molecules below.
Numbers only here, please. The scale is µM.

Recorded TGI, per entry:
// query Recorded TGI of COc1cc(/C=C/c2nc(N)nnc2C)cc(OC)c1OC , please.
// result 29.5

// query Recorded TGI of c1ccc(Nc2nc(-c3ccccn3)cs2)nc1 , please.
// result 24.7

// next item, TGI requested
// query Recorded TGI of CCN(Cc1ccccc1Cl)c1ccc(CO)c(Cl)c1 , please.
// result 25.4

* * *

- Test system: MCF7 breast
- measurement-description: NCI tumour cell line growth inhibition, 48 h
measured-metric: TGI (µM)
Numbers only here, please. The scale is µM.

// query Recorded TGI of CCCCc1ccc(-n2sc3ncc([N+](=O)[O-])cc3c2=O)cc1 , please.
// result 40.5

// next item, TGI requested
// query Recorded TGI of CC(C)(C)OC(=O)NCCC(=O)NC1(c2cc3ccccc3s2)CCCCC1 , please.
// result 41

* * *

TGI values for the compounds below.
- System: MDA-MB-435
- measurement-description: NCI tumour cell line growth inhibition, 48 h

// query Recorded TGI of O=c1c2ccccc2nc2n1C(c1ccc([N+](=O)[O-])cc1)C2(c1ccccc1)c1ccccc1 (stereo not given) , please.
// result > 100 µM

// query Recorded TGI of COC(=O)c1ccc2c(c1)C(=O)c1c-2n(C)c(=O)c2cc(OC)c(OC)cc12 , please.
// result > 50 µM

// query Recorded TGI of O=C(O)C1C2C=CC(C2)C1C(=O)O (stereo not given) , please.
// result > 100 µM

// next item, TGI requested
// query Recorded TGI of COC(=O)[C@@]1(Cc2ccc(O)cc2)C[C@@H]2Cc3ccccc3N2N1 , please.
// result > 100 µM

* * *

- System: NCI-H226 lung
- measurement-description: NCI tumour cell line growth inhibition, 48 h
TGI values for the molecules below.

// query Recorded TGI of N#CC1(Nc2ccc(-c3ccc(NC4(C#N)CCCC4)cc3)cc2)CCCC1 , please.
// result > 100 µM

// query Recorded TGI of Nn1c(CCCCCCCCc2nnc(COc3ccccc3)n2N)nnc1COc1ccccc1 , please.
// result > 100 µM

---
// query Recorded TGI of CC1=NN2C(c3ccc(C)cc3)=CSC2=NC(C)(C)C1 , please.
// result > 100 µM

* * *

- Test system: T-47D breast
- measurement-description: NCI tumour cell line growth inhibition, 48 h
measured-metric: GI50

Recorded GI50, per entry:
// query Recorded GI50 of CNc1cc2nc3cc(NC)c(C)cc3cc2cc1C , please.
// result 1.1 µM

// query Recorded GI50 of O=C(O)C1C2C=CC(C2)C1C(=O)O (stereo not drawn) , please.
// result > 100 µM

// next item, GI50 requested
// query Recorded GI50 of Clc1cc2c(nn1)Nc1ccccc1S2 , please.
// result > 100 µM

* * *

- Tested on: LOX IMVI melanoma
- measurement-description: NCI tumour cell line growth inhibition, 48 h
TGI values for the compounds below.

// query Return TGI measured with LOX IMVI melanoma given this compound: CCCC[n+]1c(/C=C\c2c(OC)cc(OC)cc2OC)ccc2ccccc21
// result 2.58 µM

// query Return TGI measured with LOX IMVI melanoma given this compound: O=c1cc(N2CCCC2)[nH]c(=O)n1-c1ccc(F)cc1
// result > 100 µM

// query Return TGI measured with LOX IMVI melanoma given this compound: COC(=O)C(C(=O)C(=O)Nc1ccccc1C#N)c1nc2ccc([N+](=O)[O-])cc2[nH]c1=O (stereo unspecified)
// result > 100 µM

// query Return TGI measured with LOX IMVI melanoma given this compound: O=C(NNCC(F)(F)F)c1ccncc1
// result > 100 µM

// query Return TGI measured with LOX IMVI melanoma given this compound: CC(C)=CCC1=C(OCC(=O)O)C(=O)c2ccccc2C1=O
// result > 100 µM

// query Return TGI measured with LOX IMVI melanoma given this compound: COC(=O)c1ccc2c(c1)C(=O)c1c-2n(C)c(=O)c2cc(OC)c(OC)cc12
// result > 50 µM

// query Return TGI measured with LOX IMVI melanoma given this compound: COC(=O)NN1C(C)=C(C(=O)OC)C2(C#N)C(C(=O)OC)=C(C)N(NC(=O)OC)C12N (stereo unspecified)
// result > 100 µM

// query Return TGI measured with LOX IMVI melanoma given this compound: C[C@H](NC(=O)n1c2ccccc2c2ccccc21)C(=O)O
// result > 100 µM

// query Return TGI measured with LOX IMVI melanoma given this compound: CC(=O)C=NCC(=O)O
// result > 100 µM

// query Return TGI measured with LOX IMVI melanoma given this compound: COc1cc(/C=C2\Oc3cc(OCCCN4CCCC4)ccc3C2=O)cc(OC)c1
// result 3.05 µM

// query Return TGI measured with LOX IMVI melanoma given this compound: Cc1cc2oc(-c3ccccc3)c(C)c(=O)c2c2c1OC(C)(C)S2
// result > 100 µM

* * *

- Test system: NCI-H226 lung
- measurement-description: NCI tumour cell line growth inhibition, 48 h
TGI values for the compounds below.

// query Return TGI measured with NCI-H226 lung given this compound: O=C(Nc1c(C(=O)NC2CCCCC2)[nH]c(=O)[nH]c1=O)c1ccc(Cl)cc1
// result > 100 µM

* * *

- Test system: KM12 colon
- measurement-description: NCI tumour cell line growth inhibition, 48 h
measured-metric: TGI

// query Recorded TGI of COc1ccc(/C=C/C(=N/NC(=O)N/N=C(/C=C/c2ccc(OC)cc2)C(C)(C)CN2CCCCC2)C(C)(C)CN2CCCCC2)cc1 , please.
// result 3.27 µM

// next item, TGI requested
// query Recorded TGI of NC(=O)C(=CNC(=S)Nc1ccc(Cl)c(Cl)c1)C(N)=O , please.
// result > 100 µM

* * *

- Test system: SF-268 CNS
- measurement-description: NCI tumour cell line growth inhibition, 48 h
measured-metric: TGI

// query Recorded TGI of Cc1cc(C)n2c(-c3ccccc3)c(C)cc2n1 , please.
// result > 100 µM

// query Recorded TGI of C[C@]12CC[C@H]3[C@@H](CCC4=CC(=O)CC[C@@]43C)[C@@H]1CC[C@@H]2C(=O)COS(=O)(=O)c1ccc(Br)cc1 , please.
// result 34.6 µM

// query Recorded TGI of Cc1[nH]n(C(=N)N)c(=O)c1CCO , please.
// result > 100 µM

// query Recorded TGI of Cc1ccc(S(=O)(=O)N2c3ccccc3[C@H]3CCC=C[C@H]32)cc1 , please.
// result > 76.1 µM

// query Recorded TGI of O=C1C=CC(=Nc2ccccc2)c2ccccc21 , please.
// result 24.8 µM

// query Recorded TGI of COc1cc2oc(-c3ccc(O)cc3O)c(CC=C(C)C)c(=O)c2c(O)c1/C=C/C(C)C , please.
// result 5.52 µM

// query Recorded TGI of CCC(CCC(C)C1CCC2C3CC=C4CC(OC5OC(CO)C(O)C(O)C5O)CCC4(C)C3CCC12C)C(C)C (stereo unspecified) , please.
// result > 100 µM

// query Recorded TGI of C[n+]1c2ccccc2n2c3ccccc3c(NCCc3ccccn3)c(C#N)c21 , please.
// result > 22.4 µM

---
// query Recorded TGI of COC(=O)c1ccc2c(c1)C(=O)c1c-2n(C)c(=O)c2cc(OC)c(OC)cc12 , please.
// result > 50 µM

// query Recorded TGI of O=c1c2ccccc2nc2n1C(c1ccc([N+](=O)[O-])cc1)C2(c1ccccc1)c1ccccc1 (stereo unspecified) , please.
// result > 100 µM

// query Recorded TGI of CC1SC2(CCC(c3ccccc3)CC2)N(NC(=O)c2[nH]c3ccc(F)cc3c2-c2ccccc2)C1=O (stereo unspecified) , please.
// result > 100 µM

* * *

- System: SNB-75 CNS
- measurement-description: NCI tumour cell line growth inhibition, 48 h
measured-metric: TGI

// query Return TGI measured with SNB-75 CNS given this molecule: CCOC(=O)CSc1nnc(CSc2nc(-c3ccccc3)c(-c3ccccc3)[nH]2)n1-c1ccccc1
// result > 100 µM

// query Return TGI measured with SNB-75 CNS given this molecule: O=C(O)C1CCC(=O)N1S(=O)(=O)c1ccccc1 (stereo unspecified)
// result > 100 µM

// query Return TGI measured with SNB-75 CNS given this molecule: CCN1C(=O)/C(=C2\SC(c3ccccc3)(c3ccccc3)c3ccccc32)SC1=S
// result > 100 µM

// query Return TGI measured with SNB-75 CNS given this molecule: COc1cc(CNC2=NCCC2)cc(OC)c1OC
// result > 100 µM

// query Return TGI measured with SNB-75 CNS given this molecule: O=C(NNCC(F)(F)F)c1ccncc1
// result > 100 µM

// query Return TGI measured with SNB-75 CNS given this molecule: COc1cccc(CCNc2c(C#N)c3nc4ccccc4n3c3ccccc23)c1
// result > 58 µM
